Molecular target: PD-1
Assay: FACS; rank of the clone among the humanized BAP049 clones; cells and conditions not described in this filing
Listed here are binders together with their documented Ranking, FACS data.

Some entries whose results are on file:
| BINDER | Ranking, FACS data |
| --- | --- |
| Clone No. 12 (antibody, human IgG4 S228P, kappa, V domains shown) VH: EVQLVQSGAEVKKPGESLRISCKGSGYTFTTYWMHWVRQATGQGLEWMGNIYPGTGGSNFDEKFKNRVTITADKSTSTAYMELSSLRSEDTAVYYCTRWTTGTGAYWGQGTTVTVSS VL: DIQMTQSPSSLSASVGDRVTITCKSSQSLLDSGNQKNFLTWYLQKPGQSPQLLIYWASTRESGVPSRFSGSGSGTDFTFTISSLEAEDAATYYCQNDYSYPYTFGQGTKVEIKR | 3 |
| Clone No. 3 (antibody, human IgG4 S228P, kappa, V domains shown) VH: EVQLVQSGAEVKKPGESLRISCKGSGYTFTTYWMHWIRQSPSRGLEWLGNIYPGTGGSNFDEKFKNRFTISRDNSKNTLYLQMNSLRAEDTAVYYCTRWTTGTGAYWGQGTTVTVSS VL: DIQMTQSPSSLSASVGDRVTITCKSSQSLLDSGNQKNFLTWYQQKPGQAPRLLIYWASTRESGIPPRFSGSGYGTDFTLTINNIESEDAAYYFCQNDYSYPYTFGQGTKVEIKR | 7 |

Lab book: Ranking, FACS data of Clone No. 2 (antibody, human IgG4 S228P, kappa, V domains shown) VH: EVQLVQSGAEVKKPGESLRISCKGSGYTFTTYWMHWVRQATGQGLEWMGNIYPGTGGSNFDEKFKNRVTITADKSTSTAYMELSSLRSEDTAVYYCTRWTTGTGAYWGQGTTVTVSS VL: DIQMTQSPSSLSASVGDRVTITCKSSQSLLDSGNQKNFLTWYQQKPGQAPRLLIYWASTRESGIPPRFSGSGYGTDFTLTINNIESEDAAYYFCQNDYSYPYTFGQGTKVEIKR noted as 6
